Tested on: 292921-168-R-J2-PDC KRAS tumor spheroid viability
Experiment: Anticancer human tumor 292921-168-R-J2-PDC patient-derived pancreatic carcinoma cell line growth inhibition [KRAS2]
Settings: second compound 10 µM; first compound 0.1 µM; hits give low values; spheroids with HUVEC and MSC
VALUE KIND: viability, T/C (%)
Only the number, expressed in %, is required.

What reported viability, T/C corresponds to COc1cc2nccc(Oc3ccc(NC(=O)C4(C(=O)Nc5ccc(F)cc5)CC4)cc3)c2cc1OC + CC1OCC2(CCN(c3cnc(Sc4ccnc(N)c4Cl)c(N)n3)CC2)C1N on 292921-168-R-J2-PDC KRAS tumor spheroid viability?
30.2

What reported viability, T/C corresponds to CC(=O)OC12COC1CC(O)C1(C)C(=O)C(O)C3=C(C)C(OC(=O)C(O)C(NC(=O)OC(C)(C)C)c4ccccc4)CC(O)(C(OC(=O)c4ccccc4)C21)C3(C)C (stereo not given) + CNCc1ccccc1-c1csc(C(C)Nc2nc(C)nc3cc(OC)c(OC)cc23)c1 on 292921-168-R-J2-PDC KRAS tumor spheroid viability?
0.06

What reported viability, T/C corresponds to CC1(C)CCC(CN2CCN(c3ccc(C(=O)NS(=O)(=O)c4ccc(NCC5CCOCC5)c([N+](=O)[O-])c4)c(Oc4cnc5[nH]ccc5c4)c3)CC2)=C(c2ccc(Cl)cc2)C1 + CNCc1ccccc1-c1csc(C(C)Nc2nc(C)nc3cc(OC)c(OC)cc23)c1 on 292921-168-R-J2-PDC KRAS tumor spheroid viability?
0.08

What reported viability, T/C corresponds to Cn1ncnc1[C@H]1c2n[nH]c(=O)c3cc(F)cc(c23)N[C@@H]1c1ccc(F)cc1 + CC1OCC2(CCN(c3cnc(Sc4ccnc(N)c4Cl)c(N)n3)CC2)C1N on 292921-168-R-J2-PDC KRAS tumor spheroid viability?
26.5

What reported viability, T/C corresponds to CC1OCC2(CCN(c3cnc(Sc4ccnc(N)c4Cl)c(N)n3)CC2)C1N (stereo not given) + C=CC(=O)N1CCN(c2nc(=O)n(-c3c(C)ccnc3C(C)C)c3nc(-c4c(O)cccc4F)c(F)cc23)C(C)C1 on 292921-168-R-J2-PDC KRAS tumor spheroid viability?
15.9

====

Test system: 292921-168-R-J2-PDC KRAS tumor spheroid viability
Assay: Anticancer human tumor 292921-168-R-J2-PDC cell line growth inhibition [KRAS2]
Conditions: second compound 0.1 µM; first compound 0.00316 µM; hits give low values; spheroids with HUVEC and MSC
VALUE KIND: viability, T/C (%)
Only the number, expressed in %, is required.

Any idea what viability, T/C was measured for CC(=O)Nc1cccc(-n2c(=O)n(C3CC3)c(=O)c3c(Nc4ccc(I)cc4F)n(C)c(=O)c(C)c32)c1 + CNCc1ccccc1-c1csc(C(C)Nc2nc(C)nc3cc(OC)c(OC)cc23)c1 ?
17.5

Any idea what viability, T/C was measured for CC(=O)Nc1cccc(-n2c(=O)n(C3CC3)c(=O)c3c(Nc4ccc(I)cc4F)n(C)c(=O)c(C)c32)c1 + C=CC(=O)N1CCN(c2nc(OCC3CCCN3C)nc3c2CCN(c2cccc4cccc(C)c24)C3)CC1CC#N ?
17.6

Any idea what viability, T/C was measured for CC(=O)Nc1cccc(-n2c(=O)n(C3CC3)c(=O)c3c(Nc4ccc(I)cc4F)n(C)c(=O)c(C)c32)c1 + CC1OCC2(CCN(c3cnc(Sc4ccnc(N)c4Cl)c(N)n3)CC2)C1N ?
14.6

Any idea what viability, T/C was measured for CN(C)C/C=C/C(=O)Nc1cc2c(Nc3ccc(F)c(Cl)c3)ncnc2cc1O[C@H]1CCOC1 + C=CC(=O)N1CCN(c2nc(=O)n(-c3c(C)ccnc3C(C)C)c3nc(-c4c(O)cccc4F)c(F)cc23)C(C)C1 ?
94

Any idea what viability, T/C was measured for CN(C)C/C=C/C(=O)Nc1cc2c(Nc3ccc(F)c(Cl)c3)ncnc2cc1O[C@H]1CCOC1 + CNCc1ccccc1-c1csc(C(C)Nc2nc(C)nc3cc(OC)c(OC)cc23)c1 ?
72.4

====

Please go through the items and note down their viability, T/C.
Tested on: 292921-168-R-J2-PDC KRAS tumor spheroid viability
Test: Anticancer human tumor 292921-168-R-J2-PDC cell line growth inhibition [KRAS2];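 also: drug exposure lasted seven days after spheroids formed for three days; percent of DMSO vehicle control viability which is 100%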
Conditions: second compound 10 µM; first compound 0.0316 µM; hits give low values; spheroids with HUVEC and MSC
Only the number, expressed in %, is required.

Any idea what viability, T/C was measured for CN(C)C/C=C/C(=O)Nc1cc2c(Nc3ccc(F)c(Cl)c3)ncnc2cc1O[C@H]1CCOC1 + COc1cc2nc(C)nc(NC(C)c3cc(N)cc(C(F)(F)F)c3)c2cc1OC1CCOC1 ?
45.6

Any idea what viability, T/C was measured for Cn1ncnc1[C@H]1c2n[nH]c(=O)c3cc(F)cc(c23)N[C@@H]1c1ccc(F)cc1 + C=CC(=O)N1CCN(c2nc(=O)n(-c3c(C)ccnc3C(C)C)c3nc(-c4c(O)cccc4F)c(F)cc23)C(C)C1 ?
21.3

Any idea what viability, T/C was measured for CC1(C)CCC(CN2CCN(c3ccc(C(=O)NS(=O)(=O)c4ccc(NCC5CCOCC5)c([N+](=O)[O-])c4)c(Oc4cnc5[nH]ccc5c4)c3)CC2)=C(c2ccc(Cl)cc2)C1 + CNCc1ccccc1-c1csc(C(C)Nc2nc(C)nc3cc(OC)c(OC)cc23)c1 ?
0.08

Any idea what viability, T/C was measured for CC(C)n1nc(-c2ccc3oc(N)nc3c2)c2c(N)ncnc21 + C=CC(=O)N1CCN(c2nc(=O)n(-c3c(C)ccnc3C(C)C)c3nc(-c4c(O)cccc4F)c(F)cc23)C(C)C1 ?
29.5

Any idea what viability, T/C was measured for COc1cc(Nc2ncc3c(n2)-c2ccc(Cl)cc2C(c2c(F)cccc2OC)=NC3)ccc1C(=O)O + C=CC(=O)N1CCN(c2nc(=O)n(-c3c(C)ccnc3C(C)C)c3nc(-c4c(O)cccc4F)c(F)cc23)C(C)C1 ?
22.9

====

Test system: 292921-168-R-J2-PDC KRAS tumor spheroid viability
Experiment: Anticancer human tumor 292921-168-R-J2-PDC cell line growth inhibition [KRAS2];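 also: drug exposure lasted seven days after spheroids formed for three days; percent of DMSO vehicle control viability which is 100%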
Settings: second compound 0.0316 µM; first compound 0.316 µM; hits give low values; spheroids with HUVEC and MSC
Please go through the items and note down their viability, T/C.
Only the number, expressed in %, is required.

What reported viability, T/C corresponds to CC1OCC2(CCN(c3cnc(Sc4ccnc(N)c4Cl)c(N)n3)CC2)C1N (stereo not drawn) + C=CC(=O)N1CCN(c2nc(OCC3CCCN3C)nc3c2CCN(c2cccc4cccc(C)c24)C3)CC1CC#N on 292921-168-R-J2-PDC KRAS tumor spheroid viability?
48.8

What reported viability, T/C corresponds to CC(C)NCC(C(=O)N1CCN(c2ncnc3c2C(C)CC3O)CC1)c1ccc(Cl)cc1 (stereo not drawn) + C=CC(=O)N1CCN(c2nc(OCC3CCCN3C)nc3c2CCN(c2cccc4cccc(C)c24)C3)CC1CC#N on 292921-168-R-J2-PDC KRAS tumor spheroid viability?
84.5

What reported viability, T/C corresponds to CCNC(=O)CC1N=C(c2ccc(Cl)cc2)c2cc(OC)ccc2-n2c(C)nnc21 (stereo not drawn) + C=CC(=O)N1CCN(c2nc(OCC3CCCN3C)nc3c2CCN(c2cccc4cccc(C)c24)C3)CC1CC#N on 292921-168-R-J2-PDC KRAS tumor spheroid viability?
69.9

====

System: 292921-168-R-J2-PDC KRAS tumor spheroid viability
Experiment: Anticancer human tumor 292921-168-R-J2-PDC cell line growth inhibition [KRAS2];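 also: drug exposure lasted seven days after spheroids formed for three days; percent of DMSO vehicle control viability which is 100%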
Details: second compound 1 µM; first compound 0.1 µM; hits give low values; spheroids with HUVEC and MSC
VALUE KIND: viability, T/C (%)
Only the number, expressed in %, is required.

Any idea what viability, T/C was measured for Cn1nccc1Nc1nccc(-c2cc3c(s2)C(C)(C)N(CCN2CCOCC2)C3=O)n1 + COc1cc2nc(C)nc(NC(C)c3cc(N)cc(C(F)(F)F)c3)c2cc1OC1CCOC1 ?
31.6

Any idea what viability, T/C was measured for O=C(c1cc(Cc2n[nH]c(=O)c3ccccc23)ccc1F)N1CCN(C(=O)C2CC2)CC1 + CNCc1ccccc1-c1csc(C(C)Nc2nc(C)nc3cc(OC)c(OC)cc23)c1 ?
68.3

Any idea what viability, T/C was measured for CCN1CCN(Cc2ccc(Nc3ncc(F)c(-c4cc(F)c5nc(C)n(C(C)C)c5c4)n3)nc2)CC1 + COc1cc2nc(C)nc(NC(C)c3cc(N)cc(C(F)(F)F)c3)c2cc1OC1CCOC1 ?
30.8

====

System: 292921-168-R-J2-PDC KRAS tumor spheroid viability
Assay: Anticancer human tumor 292921-168-R-J2-PDC cell line growth inhibition [KRAS2];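 also: drug exposure lasted seven days after spheroids formed for three days; percent of DMSO vehicle control viability which is 100%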
Conditions: second compound 0.316 µM; first compound 0.0001 µM; hits give low values; spheroids with HUVEC and MSC
Mark class 1 for viability, T/C under 60%, class 0 if at or over.

Bench note: check whether CC(=O)Nc1cccc(-n2c(=O)n(C3CC3)c(=O)c3c(Nc4ccc(I)cc4F)n(C)c(=O)c(C)c32)c1 + C=CC(=O)N1CCN(c2nc(OCC3CCCN3C)nc3c2CCN(c2cccc4cccc(C)c24)C3)CC1CC#N shows viability, T/C below 60%
class 1

Bench note: check whether CC(=O)Nc1cccc(-n2c(=O)n(C3CC3)c(=O)c3c(Nc4ccc(I)cc4F)n(C)c(=O)c(C)c32)c1 + COc1cc2nc(C)nc(NC(C)c3cc(N)cc(C(F)(F)F)c3)c2cc1OC1CCOC1 shows viability, T/C below 60%
class 1

Bench note: check whether CC(=O)Nc1cccc(-n2c(=O)n(C3CC3)c(=O)c3c(Nc4ccc(I)cc4F)n(C)c(=O)c(C)c32)c1 + C=CC(=O)N1CCN(c2nc(=O)n(-c3c(C)ccnc3C(C)C)c3nc(-c4c(O)cccc4F)c(F)cc23)C(C)C1 shows viability, T/C below 60%
class 0

Bench note: check whether CC(=O)Nc1cccc(-n2c(=O)n(C3CC3)c(=O)c3c(Nc4ccc(I)cc4F)n(C)c(=O)c(C)c32)c1 + CC1OCC2(CCN(c3cnc(Sc4ccnc(N)c4Cl)c(N)n3)CC2)C1N shows viability, T/C below 60%
class 1

Bench note: check whether CC(=O)Nc1cccc(-n2c(=O)n(C3CC3)c(=O)c3c(Nc4ccc(I)cc4F)n(C)c(=O)c(C)c32)c1 + CNCc1ccccc1-c1csc(C(C)Nc2nc(C)nc3cc(OC)c(OC)cc23)c1 shows viability, T/C below 60%
class 0
